Where these numbers come from: ChEMBL document CHEMBL3988442

system: Wolbachia pipientis; test: Anti-Wolbachia Cell-Based Screen; assay type: functional; parameters: scale not given: in the data most compounds retested in dose-response had high values; settings: 5 µM
The whole screen tested about 48,000 compounds, of which about 13,000 (27%) showed an effect of 50% or more. This is one part of the list.
Measured Percent Effect, listed per entry.
Please reply with the bare figure in % and do not write the unit itself.

Sample records with Percent Effect:
1) O=C(COCC1CC1)N1CCSCC1 :: -4.058
2) COc1ccc2c(c1)CN(CC(=O)NC1CCCC1)CC2 :: 115.8

Asked: Output Percent Effect of CCCC(=O)N(CC)C(c1cccnc1)c1ccc2c(c1)CCO2 (configuration not stated)
Given back: -14.24

Asked: Write down Percent Effect measured for item Cc1nccn1C1CCCN(C(=O)c2cccc(Cn3ccnc3)c2)C1 (configuration not stated)
Given back: 99.35

Asked: Please supply the value of reported Percent Effect for the item O=C(COCC1CC1)N1CCCC(n2ccnc2)C1 (configuration not stated)
Given back: 8.162

Asked: For the compound O=C(COC1CCCCC1)N1CCCC(n2ccnc2)C1 (configuration not stated) , give its measured Percent Effect value.
Given back: 76.06

---

system: Wolbachia pipientis; test: Anti-Wolbachia Cell-Based Screen; type: functional; design: scale not given: in the data most compounds retested in dose-response had high values; conditions: 5 µM
Among all 48,000 compounds or so, about 13,000 (27%) showed an effect of 50% or more. Some of the results follow.
# reported Percent Effect; entries follow
Give just the numeric value; % need not be written.

1) CN(C)C1CCN(C(=O)c2n[nH]c3c2CCN(CC2CCC2)C3)CC1 :: 111.2

Asked: Note Percent Effect for the molecule shown: "Cc1ccc(N(CC(=O)NCc2nnc3n2CCC3)S(C)(=O)=O)cc1"
Given back: -5.606

Asked: Return Percent Effect (reported value) for this molecule: "CCOc1ccnc(NCc2nc(C)cc(C(F)(F)F)n2)n1"
Given back: -1.038

Asked: Fill in reported Percent Effect for this entry: "O=C(CN1C(=O)CCC1=O)NCc1cc(C2CC2)n(C2CCCC2)n1"
Given back: -8.442

Asked: Please look at this molecule and report its Percent Effect: "Cn1cc(NC(=O)N2CCC(CN3CCCC3)CC2)ccc1=O"
Given back: -5.518

Asked: Please supply the value of reported Percent Effect for the item "CCOCc1nnc(NCc2cccnc2)o1"
Given back: -1.439

Asked: Kindly indicate its recorded Percent Effect. Item: "CCOCC(=O)NCCc1nc(C2CC2)cc(C(F)(F)F)n1"
Given back: 130.2

Asked: Quick one: give measured Percent Effect for "Cc1ccc(CN2CCc3[nH]nc(C(=O)N(C)C)c3C2)s1.O=C(O)C(F)(F)F.O=C(O)C(F)(F)F"
Given back: -17.1

Asked: Give Percent Effect for "CC(C)OCCCNC(=O)CN(c1ccc(F)c(F)c1)S(C)(=O)=O"
Given back: 109.3

Asked: Please give the documented Percent Effect of "Cc1cccc(CC(=O)NCCCOC(C)C)c1"
Given back: 4.055

Asked: Identify Percent Effect associated with the molecule "CN(C)C(=O)c1n[nH]c2c1CN(CC1CCC1)C2.O=C(O)C(F)(F)F.O=C(O)C(F)(F)F"
Given back: 93.12

---

Known Percent Effect of a selection of compounds
tested on: Wolbachia pipientis; test: Anti-Wolbachia Cell-Based Screen; assay type: functional; parameters: scale not given: in the data most compounds retested in dose-response had high values; conditions: 5 µM
Hit rate of the full screen: of about 48,000 compounds, about 13,000 (27%) showed an effect of 50% or more. Some of the results follow.
Enter your answer as a number in %; do not include the unit.

Asked: # return recorded Percent Effect for entry "c1csc(CN2CCCN(c3ccc(Cn4ccnc4)cn3)CC2)c1"
Given back: 106.4

Asked: Dear colleague, please send me the reported Percent Effect for "CC(C)(C#N)CCCS(=O)(=O)c1nccn1-c1cccc(F)c1" when you can.
Given back: -8.679

Asked: Return Percent Effect for the following compound: "Cc1ccc(C(=O)NC2CCN(C(=O)NCc3ccccn3)CC2)o1"
Given back: 118.1

Asked: Recall and state the measured Percent Effect for "O=C(CNC(=O)Nc1cccc(-c2nccs2)c1)NCCO" .
Given back: -9.757

---

system: Wolbachia pipientis; test: Anti-Wolbachia Cell-Based Screen; type: functional; set-up: scale not given: in the data most compounds retested in dose-response had high values; details: 5 µM
Hit rate of the full screen: of about 48,000 compounds, about 13,000 (27%) showed an effect of 50% or more. This is one part of the list.
// values below are reported Percent Effect
The answer is to be given in %; state only the numeric part.

1) O=C(NCCN1CCc2ccccc2C1)c1scnc1Cl :: 7.313
2) COc1ncccc1CNC(=O)CN1CCCCCC1=O :: -54.83

Asked: Report Percent Effect, nothing else, for this compound: "O=C(c1cc(-n2cccn2)ccn1)N1CCOc2ccncc21"
Given back: -0.9385

---

tested on: Wolbachia pipientis; experiment: Anti-Wolbachia Cell-Based Screen; format: functional; parameters: scale not given: in the data most compounds retested in dose-response had high values; conditions: 5 µM
About 13,000 (27%) of roughly 48,000 compounds showed an effect of 50% or more. The list shows a part of the results.
readout: Percent Effect (%)
Please reply with the bare figure in % and do not write the unit itself.

Known Percent Effect results, listed for orientation:
1. Cc1cc(C)n(C2CN(C(=O)Cn3c(=O)c(C)nc4ccccc43)C2)n1 :: -1.32
2. Cc1nc2c(NCC(C)N(C)c3ccccc3)ncnc2o1 (centres undefined) :: -36.58
3. CC(C)NC(=O)N1Cc2nccn2CC(COc2cccnc2)C1.O=C(O)C(F)(F)F (centres undefined) :: 96.94

Asked: Give measured Percent Effect for "CCCc1nnc(N2CCN(c3cccc(OC)c3)C(=O)C2)o1" (Wolbachia pipientis).
Given back: 11.57

Asked: Param request: Percent Effect | system Wolbachia pipientis | item "Cc1nc(CN(C)C(=O)CNC(=O)c2ccc(C#N)cc2)cs1"
Given back: 6.778

---

system: Wolbachia pipientis; assay: Anti-Wolbachia Cell-Based Screen; type: functional; parameters: scale not given: in the data most compounds retested in dose-response had high values; details: 5 µM
Among all 48,000 compounds or so, about 13,000 (27%) showed an effect of 50% or more. The list shows a part of the results.
readout: Percent Effect (%)
Report as a plain number; the unit % is understood.

1) CN1C[C@@H]2CN(Cc3ccsc3)CCC[C@]2(C(=O)O)C1.O=C(O)C(F)(F)F.O=C(O)C(F)(F)F :: 3.355

Asked: Write down Percent Effect measured for item "C[C@H]1CN(c2ccccn2)C[C@@]12CCN(c1cccnc1)C2=O.O=C(O)C(F)(F)F.O=C(O)C(F)(F)F"
Given back: 96.67

Asked: Supply measured Percent Effect of CN1CC(NC(=O)Cc2csc(C(C)(C)C)n2)CCC1=O (stereo not drawn) in your reply.
Given back: -3.161

---

test system: Wolbachia pipientis; assay: Anti-Wolbachia Cell-Based Screen; type: functional; set-up: scale not given: in the data most compounds retested in dose-response had high values; conditions: 5 µM
Hit rate of the full screen: of about 48,000 compounds, about 13,000 (27%) showed an effect of 50% or more. The list shows a part of the results.
readout: Percent Effect
Write the numeric value and append its unit.

Example entries begin here.
1. CCNC(=O)CCC(=O)NC1(c2cccc(Br)c2)CC1 :: -12.14%
2. O=C(Nc1ccccc1-c1cccs1)N1CCOCC1 :: -11.7%
3. O=c1ccc(-n2ccnc2)nn1CCNS(=O)(=O)c1ccc(Br)cc1 :: -0.5803%

Asked: Using known records, supply Percent Effect for Cc1nn(C)c(N2CCOCC2)c1CNC(C)c1cccnc1 (stereo not drawn)
Given back: -5.13%

---

tested on: Wolbachia pipientis; test: Anti-Wolbachia Cell-Based Screen; format: functional; set-up: scale not given: in the data most compounds retested in dose-response had high values; details: 5 µM
Hit rate of the full screen: of about 48,000 compounds, about 13,000 (27%) showed an effect of 50% or more. The list shows a part of the results.
readout: Percent Effect (%)
Use % as the unit, but write only the number.

Here is how some compounds turned out for Percent Effect.
1. CC(C)(NC(=O)NCc1cccc(Br)c1)C(=O)O :: 23.95
2. CN(C)c1nccnc1C1CCN(c2cnccn2)CC1 :: 116.7

Asked: Identify measured Percent Effect obtained with Wolbachia pipientis for Cc1cc(C)c(CNC(=O)C2CCCN(c3cnccn3)C2)c(=O)[nH]1 (stereo unspecified) .
Given back: 0.7586

Asked: Find Percent Effect for CN(C)CCCn1ccnc1C1CCCN(c2cc(N)ncn2)C1 (stereo unspecified) on Wolbachia pipientis and write it down.
Given back: -5.782

Asked: Output reported Percent Effect of the compound "Nc1ncccc1C(=O)NCc1ccc(Br)cc1" on Wolbachia pipientis.
Given back: 135.9

Asked: Give Wolbachia pipientis Percent Effect for the following compound: COc1cc(N2CCCC(c3ncc[nH]3)C2)ncn1 (stereo unspecified)
Given back: -14.93
